# method summary: physchem
# conditions: water, 20 °C, thermodynamic from solid
Where a name gives a salt, the structure may show the parent alone.
property: solubility at 30 min

Examples with answers:
Nc1c(Br)cc(Br)cc1CN[C@H]1CC[C@H](O)CC1 [ambroxol hydrochloride]    ~20 mg/mL
O=c1[nH]c2ccccc2n1CCCN1CCC(n2c(=O)[nH]c3cc(Cl)ccc32)CC1    ~0.002 mg/mL
NC(N)=Nc1nc(CSCCC(N)=NS(N)(=O)=O)cs1    ~0.7 mg/mL
COc1ccc(OC)c(C(O)CNC(=O)CN)c1 (centres unmarked) [midodrine hydrochloride]    ~100 mg/mL

Now for the compound whose solubility at 30 min we want.
Bench note: what solubility at 30 min did C[C@H](CS)C(=O)N1CCC[C@H]1C(=O)O show?
~60 mg/mL
